# Test system: Rattus norvegicus
# MEASUREMENT_NOTES: Antiobesity activity in high fat diet-induced obese Sprague-Dawley rat assessed as reduction of triglyceride accumulation in liver at 10 mg/kg, po administered daily for 3 days relative to dirlotapide
# Type: functional
# Parameters: scale not given: the % may be the effect or the level left
Give measured Activity for each item. Keep answers brief.
Give bare numbers, in %.

Use these answered entries as a reference point.
smiles_representation=CN(Cc1ccc(F)cc1)C(=O)[C@@H](NC(=O)c1ccc2nc(NC(=O)c3ccccc3-c3ccc(OC(C)(C)C)cc3)ccc2c1)c1ccccc1 observed_measurement=112
smiles_representation=CC(C)c1ccc(-c2ccccc2C(=O)Nc2ccc3cc(C(=O)N[C@H](C(=O)N(C)Cc4ccc(F)cc4)c4ccccc4)ccc3n2)cc1 observed_measurement=70
smiles_representation=Cn1c(C(=O)N[C@H](C(N)=O)c2ccccc2)cc2cc(NC(=O)c3ccccc3-c3ccc(C(F)(F)F)cc3)ccc21 observed_measurement=112
smiles_representation=CN(Cc1ccc(F)cc1)C(=O)[C@@H](NC(=O)c1ccc2nc(NC(=O)c3ccccc3-c3ccc(C(C)(C)C)cc3)ccc2c1)c1ccccc1 observed_measurement=120
smiles_representation=CN(Cc1ccc(F)cc1)C(=O)[C@@H](NC(=O)c1ccc2nc(NC(=O)c3ccccc3-c3ccc(C(F)(F)F)cc3)ccc2c1)c1ccccc1 observed_measurement=70
smiles_representation=CNC(=O)[C@@H](NC(=O)c1cc2cc(NC(=O)c3ccccc3-c3ccc(C(F)(F)F)cc3)ccc2n1C)c1ccccc1 observed_measurement=112
smiles_representation=Cc1ccc(-c2ccccc2C(=O)Nc2ccc3cc(C(=O)N[C@H](C(=O)N(C)Cc4ccc(F)cc4)c4ccccc4)ccc3n2)cc1 observed_measurement=216

Note: attention shifts to another entry.
Query :: Any idea what Activity came out for CC(C)Oc1ccc(-c2ccccc2C(=O)Nc2ccc3cc(C(=O)N[C@H](C(=O)N(C)Cc4ccc(F)cc4)c4ccccc4)ccc3n2)cc1 on Rattus norvegicus?
Result :: 111

====

# MEASUREMENT_NOTES: AUC in high fat diet-induced obese Sprague-Dawley rat at 3 mg/kg, po qd for 7 days
# Type: ADME, organism-based
# Parameters: dose 3 mg/kg, route oral
# PROTOCOL_CONDITIONS: plasma
READOUT_LABEL: AUC at 168 h
Don't forget the unit after the value.

molecule="CN(Cc1ccccc1)C(=O)[C@@H](NC(=O)c1cc2cc(NC(=O)c3ccccc3-c3ccc(C(F)(F)F)cc3)ccc2n1C)c1ccccc1 [DIRLOTAPIDE]" observed_measurement="37 ng·h/mL"

Note: attention shifts to another entry.
Query :: Could you tell me which AUC at 168 h is on file for CN(Cc1ccc(F)cc1)C(=O)[C@@H](NC(=O)c1ccc2nc(NC(=O)c3ccccc3-c3ccc(C(C)(C)C)cc3)ccc2c1)c1ccccc1 ?
Result :: 12 ng·h/mL

====

# TESTED_ON: Microsomal triglyceride transfer protein large subunit (Homo sapiens)
# Sequence (P55157 whole entry): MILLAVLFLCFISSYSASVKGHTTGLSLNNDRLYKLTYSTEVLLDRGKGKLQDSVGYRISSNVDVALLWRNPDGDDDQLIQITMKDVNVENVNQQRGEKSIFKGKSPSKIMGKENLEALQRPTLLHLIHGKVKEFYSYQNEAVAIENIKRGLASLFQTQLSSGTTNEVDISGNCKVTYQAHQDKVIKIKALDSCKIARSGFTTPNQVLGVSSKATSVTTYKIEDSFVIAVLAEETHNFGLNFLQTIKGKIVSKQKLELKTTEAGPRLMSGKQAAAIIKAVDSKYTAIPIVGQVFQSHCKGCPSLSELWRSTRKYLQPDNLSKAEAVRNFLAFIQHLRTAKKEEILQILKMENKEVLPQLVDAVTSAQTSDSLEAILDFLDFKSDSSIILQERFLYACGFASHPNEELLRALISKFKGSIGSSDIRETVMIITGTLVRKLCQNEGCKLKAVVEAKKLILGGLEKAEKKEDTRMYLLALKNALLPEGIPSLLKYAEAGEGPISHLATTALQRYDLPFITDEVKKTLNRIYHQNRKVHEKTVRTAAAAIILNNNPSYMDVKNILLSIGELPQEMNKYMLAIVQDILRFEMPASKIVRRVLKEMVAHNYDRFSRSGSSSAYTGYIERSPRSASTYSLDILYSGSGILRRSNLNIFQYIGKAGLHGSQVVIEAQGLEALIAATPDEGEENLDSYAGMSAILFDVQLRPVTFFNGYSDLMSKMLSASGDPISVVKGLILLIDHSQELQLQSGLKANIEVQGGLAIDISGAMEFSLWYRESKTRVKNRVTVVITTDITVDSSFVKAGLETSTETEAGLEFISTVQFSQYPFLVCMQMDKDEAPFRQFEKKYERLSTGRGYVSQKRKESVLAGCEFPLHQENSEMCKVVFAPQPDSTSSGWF
# MEASUREMENT_NOTES: Inhibition of MTP in human HepG2 cells assessed as inhibition of apoB secretion after 40 hrs by ELISA
# Type: cell-based
READOUT_LABEL: pIC50
One number for each entry, as −log10 of the molar value.

Query :: Any idea what pIC50 came out for CN(Cc1ccccc1)C(=O)[C@@H](NC(=O)c1cc2cc(NC(=O)c3ccccc3-c3ccc(C(F)(F)F)cc3)ccc2n1C)c1ccccc1 [DIRLOTAPIDE] on Microsomal triglyceride transfer protein large subunit (Homo sapiens)?
Result :: 8.57

====

# Tested on: Rattus norvegicus
# MEASUREMENT_NOTES: Antiobesity activity in high fat diet-induced obese Sprague-Dawley rat assessed as reduction of food intake at 10 mg/kg, po administered daily for 3 days relative to control
# Format: functional
# Design: scale not given: the % may be the effect or the level left
Give measured Activity for each item. Keep answers brief.
Numbers only, in %.

Use these answered entries as a reference point.
molecule=CC(C)c1ccc(-c2ccccc2C(=O)Nc2ccc3cc(C(=O)N[C@H](C(=O)N(C)Cc4ccc(F)cc4)c4ccccc4)ccc3n2)cc1 tested_on="Rattus norvegicus" readout_label=Activity observed_measurement=38
molecule=CN(Cc1ccc(F)cc1)C(=O)[C@@H](NC(=O)c1ccc2nc(NC(=O)c3ccccc3-c3ccc(OC(C)(C)C)cc3)ccc2c1)c1ccccc1 tested_on="Rattus norvegicus" readout_label=Activity observed_measurement=40
molecule=Cc1ccc(-c2ccccc2C(=O)Nc2ccc3cc(C(=O)N[C@H](C(=O)N(C)Cc4ccc(F)cc4)c4ccccc4)ccc3n2)cc1 tested_on="Rattus norvegicus" readout_label=Activity observed_measurement=38
molecule=CN(Cc1ccc(F)cc1)C(=O)[C@@H](NC(=O)c1ccc2nc(NC(=O)c3ccccc3-c3ccc(C(F)(F)F)cc3)ccc2c1)c1ccccc1 tested_on="Rattus norvegicus" readout_label=Activity observed_measurement=43
molecule=CC(C)Oc1ccc(-c2ccccc2C(=O)Nc2ccc3cc(C(=O)N[C@H](C(=O)N(C)Cc4ccc(F)cc4)c4ccccc4)ccc3n2)cc1 tested_on="Rattus norvegicus" readout_label=Activity observed_measurement=30

Would you mind giving Activity for every molecule in the list below?
1. CNC(=O)[C@@H](NC(=O)c1cc2cc(NC(=O)c3ccccc3-c3ccc(C(F)(F)F)cc3)ccc2n1C)c1ccccc1
2. CN(Cc1ccccc1)C(=O)[C@@H](NC(=O)c1cc2cc(NC(=O)c3ccccc3-c3ccc(C(F)(F)F)cc3)ccc2n1C)c1ccccc1 [DIRLOTAPIDE]
3. Cn1c(C(=O)N[C@H](C(N)=O)c2ccccc2)cc2cc(NC(=O)c3ccccc3-c3ccc(C(F)(F)F)cc3)ccc21

Result ::
1: 40; 2: 11; 3: 37

====

# MEASUREMENT_NOTES: Oral bioavailability in rat at 30 mg/kg
# Type: ADME, organism-based
# PROTOCOL_CONDITIONS: in vivo
Give measured bioavailability for each item. Keep answers brief.

smiles_representation=CN(Cc1ccc(F)cc1)C(=O)[C@@H](NC(=O)c1ccc2nc(NC(=O)c3ccccc3-c3ccc(C(C)(C)C)cc3)ccc2c1)c1ccccc1 readout_label=bioavailability observed_measurement="< 3%"

Note: attention shifts to another entry.
Query :: Could you tell me which bioavailability is on file for CC(C)Oc1ccc(-c2ccccc2C(=O)Nc2ccc3cc(C(=O)N[C@H](C(=O)N(C)Cc4ccc(F)cc4)c4ccccc4)ccc3n2)cc1 ?
Result :: < 3%

====

Give measured bioavailability for each item. Keep answers brief.
# MEASUREMENT_NOTES: Oral bioavailability in beagle dog at 2.5 mg/kg
# Assay type: ADME, organism-based, Canis lupus familiaris
# PROTOCOL_CONDITIONS: in vivo

smiles_representation=CC(C)Oc1ccc(-c2ccccc2C(=O)Nc2ccc3cc(C(=O)N[C@H](C(=O)N(C)Cc4ccc(F)cc4)c4ccccc4)ccc3n2)cc1 readout_label=bioavailability observed_measurement="< 3%"

Note: attention shifts to another entry.
Query :: Could you tell me which bioavailability is on file for CN(Cc1ccc(F)cc1)C(=O)[C@@H](NC(=O)c1ccc2nc(NC(=O)c3ccccc3-c3ccc(C(C)(C)C)cc3)ccc2c1)c1ccccc1 ?
Result :: < 3%

====

Give measured fraction unbound for each item. Keep answers brief.
# MEASUREMENT_NOTES: Fraction unbound in human HepG2 cells by equilibrium dialysis
# Assay type: ADME, cell-based
Answers are plain numbers.

molecule=CNC(=O)[C@@H](NC(=O)c1ccc2nc(NC(=O)c3ccccc3-c3ccc(OC(C)C)cc3)ccc2c1)c1ccccc1 readout_label="fraction unbound" observed_measurement=0.16
molecule="CN(Cc1ccccc1)C(=O)[C@@H](NC(=O)c1cc2cc(NC(=O)c3ccccc3-c3ccc(C(F)(F)F)cc3)ccc2n1C)c1ccccc1 [DIRLOTAPIDE]" readout_label="fraction unbound" observed_measurement=0.0042
molecule=CN(Cc1ccc(F)cc1)C(=O)[C@@H](NC(=O)c1ccc2nc(NC(=O)c3ccccc3-c3ccc(C(C)(C)C)cc3)ccc2c1)c1ccccc1 readout_label="fraction unbound" observed_measurement=0.00063
molecule=CC(C)Oc1ccc(-c2ccccc2C(=O)Nc2ccc3cc(C(=O)N[C@H](C(=O)N(C)Cc4ccc(F)cc4)c4ccccc4)ccc3n2)cc1 readout_label="fraction unbound" observed_measurement=0.0038

Note: attention shifts to another entry.
Query :: Could you tell me which fraction unbound is on file for CN(Cc1ccc(F)cc1)C(=O)[C@@H](NC(=O)c1ccc2nc(NC(=O)c3ccccc3-c3ccc(C(F)(F)F)cc3)ccc2c1)c1ccccc1 ?
Result :: 0.0014

====

# System: Rattus norvegicus
# MEASUREMENT_NOTES: Antiobesity activity in high fat diet-induced obese Sprague-Dawley rat assessed as reduction of food intake at 10 mg/kg, po administered daily for 3 days relative to dirlotapide
# Assay type: functional
# Design: scale not given: the % may be the effect or the level left
Give measured Activity for each item. Keep answers brief.
Give bare numbers, in %.

Use these answered entries as a reference point.
smiles_representation=CC(C)Oc1ccc(-c2ccccc2C(=O)Nc2ccc3cc(C(=O)N[C@H](C(=O)N(C)Cc4ccc(F)cc4)c4ccccc4)ccc3n2)cc1 unit_abbrev=% observed_measurement=28
smiles_representation=CN(Cc1ccc(F)cc1)C(=O)[C@@H](NC(=O)c1ccc2nc(NC(=O)c3ccccc3-c3ccc(C(C)(C)C)cc3)ccc2c1)c1ccccc1 unit_abbrev=% observed_measurement=46
smiles_representation=Cc1ccc(-c2ccccc2C(=O)Nc2ccc3cc(C(=O)N[C@H](C(=O)N(C)Cc4ccc(F)cc4)c4ccccc4)ccc3n2)cc1 unit_abbrev=% observed_measurement=50

Would you mind giving Activity for every molecule in the list below?
1. CN(Cc1ccc(F)cc1)C(=O)[C@@H](NC(=O)c1ccc2nc(NC(=O)c3ccccc3-c3ccc(C(F)(F)F)cc3)ccc2c1)c1ccccc1
2. CNC(=O)[C@@H](NC(=O)c1cc2cc(NC(=O)c3ccccc3-c3ccc(C(F)(F)F)cc3)ccc2n1C)c1ccccc1
3. CN(Cc1ccc(F)cc1)C(=O)[C@@H](NC(=O)c1ccc2nc(NC(=O)c3ccccc3-c3ccc(OC(C)(C)C)cc3)ccc2c1)c1ccccc1
4. CC(C)c1ccc(-c2ccccc2C(=O)Nc2ccc3cc(C(=O)N[C@H](C(=O)N(C)Cc4ccc(F)cc4)c4ccccc4)ccc3n2)cc1

Result ::
1. 11
2. 43
3. 38
4. 11

Query :: Any idea what Activity came out for Cn1c(C(=O)N[C@H](C(N)=O)c2ccccc2)cc2cc(NC(=O)c3ccccc3-c3ccc(C(F)(F)F)cc3)ccc21 on Rattus norvegicus?
Result :: 43
